Biological target: Muscarinic acetylcholine receptor M3 (Homo sapiens)
Sequence (P20309 whole entry): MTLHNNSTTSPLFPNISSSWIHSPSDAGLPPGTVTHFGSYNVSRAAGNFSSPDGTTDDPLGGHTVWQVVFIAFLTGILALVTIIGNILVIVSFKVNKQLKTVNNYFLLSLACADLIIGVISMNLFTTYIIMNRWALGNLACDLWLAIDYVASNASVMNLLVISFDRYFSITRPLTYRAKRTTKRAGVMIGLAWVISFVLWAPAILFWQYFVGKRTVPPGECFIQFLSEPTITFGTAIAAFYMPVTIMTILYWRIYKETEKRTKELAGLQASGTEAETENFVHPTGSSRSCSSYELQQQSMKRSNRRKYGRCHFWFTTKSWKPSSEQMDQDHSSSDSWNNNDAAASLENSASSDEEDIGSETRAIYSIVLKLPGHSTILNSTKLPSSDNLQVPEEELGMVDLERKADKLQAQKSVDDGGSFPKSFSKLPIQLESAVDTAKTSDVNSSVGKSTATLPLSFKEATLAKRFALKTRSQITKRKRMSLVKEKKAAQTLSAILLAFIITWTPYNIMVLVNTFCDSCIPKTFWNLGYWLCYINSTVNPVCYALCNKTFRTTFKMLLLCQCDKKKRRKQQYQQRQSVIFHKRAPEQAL
Assay: Displacement of [3H]NMS from human M3 muscarinic receptor expressed in CHO-K1 cells
Format: cell-based
For each of the compounds below, state its Ki.
Field format: number, assumed µM, no unit text.

IN: For the compound CN1CCC(c2ccccc2)=C(C(=O)OCCc2ccc3c(c2)CCO3)C1 , report Ki.
OUT: 2.84

IN: For the compound CCN1CCC(c2ccccc2)=C(C(=O)OCCCc2ccc(OC)cc2)C1 , report Ki.
OUT: 4.07

IN: For the compound CCN1CCC(c2ccccc2)=C(C(=O)OCCc2ccc3c(c2)CCO3)C1 , report Ki.
OUT: 31.1

IN: For the compound CN1CCC(c2ccccc2F)=C(C(=O)OCCc2ccc3c(c2)CCO3)C1 , report Ki.
OUT: 4.89

====

For each of the compounds below, state its pKi.
Molecular target: UniProt P08912
Sequence (P08912 whole entry): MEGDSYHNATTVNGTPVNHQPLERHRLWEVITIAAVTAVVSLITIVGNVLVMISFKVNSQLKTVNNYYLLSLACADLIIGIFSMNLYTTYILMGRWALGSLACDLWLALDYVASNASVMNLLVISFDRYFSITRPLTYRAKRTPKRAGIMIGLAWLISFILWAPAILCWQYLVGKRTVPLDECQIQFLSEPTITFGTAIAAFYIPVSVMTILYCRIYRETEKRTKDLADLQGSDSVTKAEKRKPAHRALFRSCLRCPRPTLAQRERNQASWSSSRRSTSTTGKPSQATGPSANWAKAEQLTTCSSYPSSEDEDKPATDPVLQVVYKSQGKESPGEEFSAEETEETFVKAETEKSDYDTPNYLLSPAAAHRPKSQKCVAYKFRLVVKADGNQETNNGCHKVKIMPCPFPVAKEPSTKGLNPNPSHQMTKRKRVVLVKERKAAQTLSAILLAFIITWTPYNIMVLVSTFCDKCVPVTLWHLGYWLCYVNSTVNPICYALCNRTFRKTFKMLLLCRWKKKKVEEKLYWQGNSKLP
pKi: −log10 of the molar value.

IN: For the compound CN1CCC(c2cccc(F)c2)=C(C(=O)OCCc2ccc3c(c2)CCO3)C1 , report pKi.
OUT: < 4.00

IN: For the compound CCOC(=O)C1=C(c2ccccc2)CCN(CCc2ccc(OC)cc2)C1 , report pKi.
OUT: < 4.00

IN: For the compound CN1CCC(c2ccccc2F)=C(C(=O)OCCc2ccc3c(c2)CCO3)C1 , report pKi.
OUT: 6.13

IN: For the compound CCOC(=O)C1=C(c2ccccc2)CCN(CCc2ccc3c(c2)OCO3)C1 , report pKi.
OUT: < 4.00

IN: For the compound CCOC(=O)C1=C(c2ccccc2)CCN(C2CCN(C(=O)c3c(Cl)cccc3Cl)CC2)C1 , report pKi.
OUT: < 4.00

IN: For the compound COc1ccc(OCCOC(=O)C2=C(c3ccccc3)CCN(C)C2)cc1 , report pKi.
OUT: 5.51

====

For each of the compounds below, state its Ratio Ki.
Species: Homo sapiens
Experiment: Selectivity index, ratio of Ki for human M3 muscarinic receptor to Ki for human M5 muscarinic receptor
Lab note: record just the number, no unit beside it.

IN: For the compound CN1CCC(c2ccccc2F)=C(C(=O)OCCc2ccc3c(c2)CCO3)C1 , report Ratio Ki.
OUT: 6.6

IN: For the compound CCN1CCC(c2ccccc2)=C(C(=O)OCCc2ccc3c(c2)CCO3)C1 , report Ratio Ki.
OUT: 135

IN: For the compound CN1CCC(c2ccccc2)=C(C(=O)OCCc2ccc3c(c2)CCO3)C1 , report Ratio Ki.
OUT: 47

====

Molecular target: Muscarinic acetylcholine receptor M5 (Homo sapiens, UniProt P08912)
test-readout: pKi
pKi (log units): -log10 of the concentration in mol/L.

IN: For the compound CN1CCC(c2ccccc2)=C(C(=O)OCCCc2ccc3c(c2)CCO3)C1 , report pKi.
OUT: 6.20

IN: For the compound CCN1CCC(c2ccccc2)=C(C(=O)OCCc2cccc(OC)c2)C1 , report pKi.
OUT: 6.82

IN: For the compound CCN1CCC(c2ccccc2)=C(C(=O)OCc2ccc3c(c2)OCO3)C1 , report pKi.
OUT: 6.92

IN: For the compound CN1CCC(c2ccccc2)=C(C(=O)OCCc2cccc3ccccc23)C1 , report pKi.
OUT: 5.30

IN: For the compound CSc1ccc(CCOC(=O)C2=C(c3ccccc3)CCN(C)C2)cc1 , report pKi.
OUT: 6.72

IN: For the compound COc1ccccc1C1=C(C(=O)OCCc2ccc3c(c2)CCO3)CN(C)CC1 , report pKi.
OUT: 5.62

IN: For the compound COc1ccc(CCOC(=O)C2=C(c3ccccc3)CCN(C)C2)cc1C , report pKi.
OUT: 6.13

IN: For the compound COc1ccc(CCOC(=O)C2=C(c3ccccc3)CCN(C)C2)cc1 , report pKi.
OUT: 7.52

IN: For the compound CCN1CCC(c2ccc(F)cc2)=C(C(=O)OCCc2ccc3c(c2)CCO3)C1 , report pKi.
OUT: 5.63

IN: For the compound COc1ccc(CCOC(=O)C2=C(c3cccc(F)c3)CCN(C)C2)cc1OC , report pKi.
OUT: 5.48

IN: For the compound CCN1CCC(c2ccccc2)=C(C(=O)OCCc2ccc3c(c2)OCO3)C1 , report pKi.
OUT: 6.55

IN: For the compound CN1CCC(c2ccccc2)=C(C(=O)OCCc2ccc(S(C)(=O)=O)cc2)C1 , report pKi.
OUT: 6.96

IN: For the compound CN1CCC(c2ccccc2)=C(C(=O)OCCc2ccc3c(c2)CCO3)C1 , report pKi.
OUT: 7.22

====

Species on record: Homo sapiens
Assay: Selectivity index, ratio of Ki for human M4 muscarinic receptor to Ki for human M5 muscarinic receptor
For each of the compounds below, state its Ratio Ki.
Lab note: record just the number, no unit beside it.

IN: For the compound CCN1CCC(c2ccccc2)=C(C(=O)OCCc2ccc3c(c2)CCO3)C1 , report Ratio Ki.
OUT: 46

IN: For the compound CN1CCC(c2ccccc2)=C(C(=O)OCCc2ccc3c(c2)CCO3)C1 , report Ratio Ki.
OUT: 32

IN: For the compound CN1CCC(c2ccccc2F)=C(C(=O)OCCc2ccc3c(c2)CCO3)C1 , report Ratio Ki.
OUT: 7.8

====

For each of the molecules below, state its pKi.
pKi (log units): -log10 of the concentration in mol/L.

IN: Please tell me the measured pKi for COc1ccc(CCOC(=O)C2=C(c3ccccc3)CCN(C)C2)cc1 ; system: Muscarinic acetylcholine receptor M1 (Homo sapiens, UniProt P11229).
OUT: 7.70

IN: Please tell me the measured pKi for COc1ccccc1C1=C(C(=O)OCCc2ccc3c(c2)CCO3)CN(C)CC1 ; system: Muscarinic acetylcholine receptor M1 (Homo sapiens, UniProt P11229).
OUT: 5.08

IN: Please tell me the measured pKi for CN1CCC(C(=O)OCCc2ccc3c(c2)CCO3)=C(c2ccccc2)C1 ; system: Muscarinic acetylcholine receptor M1 (Homo sapiens, UniProt P11229).
OUT: 6.68

IN: Please tell me the measured pKi for CCN1CCC(c2ccccc2)=C(C(=O)OCCc2ccsc2)C1 ; system: Muscarinic acetylcholine receptor M1 (Homo sapiens, UniProt P11229).
OUT: 6.85

IN: Please tell me the measured pKi for COc1ccc(CCCCOC(=O)C2=C(c3ccccc3)CCN(C)C2)cc1 ; system: Muscarinic acetylcholine receptor M1 (Homo sapiens, UniProt P11229).
OUT: 5.27

====

Molecular target: UniProt P08172
Sequence (P08172 whole entry): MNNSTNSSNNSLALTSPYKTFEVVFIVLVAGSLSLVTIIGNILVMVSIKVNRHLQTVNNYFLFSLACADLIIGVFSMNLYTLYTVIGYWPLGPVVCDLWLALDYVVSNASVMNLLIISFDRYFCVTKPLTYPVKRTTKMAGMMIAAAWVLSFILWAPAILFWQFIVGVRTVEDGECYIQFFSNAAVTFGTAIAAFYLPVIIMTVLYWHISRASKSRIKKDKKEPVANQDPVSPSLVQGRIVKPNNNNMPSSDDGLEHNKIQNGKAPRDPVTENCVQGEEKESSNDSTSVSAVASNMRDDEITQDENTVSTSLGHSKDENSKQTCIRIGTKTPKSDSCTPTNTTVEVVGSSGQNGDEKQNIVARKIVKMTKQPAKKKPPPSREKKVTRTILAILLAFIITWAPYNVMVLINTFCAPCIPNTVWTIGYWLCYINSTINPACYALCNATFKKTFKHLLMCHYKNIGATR
Experiment: Displacement of [3H]NMS from human M2 muscarinic receptor expressed in CHO-K1 cells
Assay type: cell-based
test-readout: Ki (nM)
Field format: number, assumed nM, no unit text.

IN: For the compound CCN1CCC(c2ccccc2)=C(C(=O)OCCCc2ccc(OC)cc2)C1 , report Ki.
OUT: 2030

IN: For the compound CN1CCC(c2ccccc2F)=C(C(=O)OCCc2ccc3c(c2)CCO3)C1 , report Ki.
OUT: 540

IN: For the compound CN1CCC(c2ccccc2)=C(C(=O)OCCc2ccc3c(c2)CCO3)C1 , report Ki.
OUT: 1170

====

Molecular target: Muscarinic acetylcholine receptor M1 (Homo sapiens)
Sequence (P11229 whole entry): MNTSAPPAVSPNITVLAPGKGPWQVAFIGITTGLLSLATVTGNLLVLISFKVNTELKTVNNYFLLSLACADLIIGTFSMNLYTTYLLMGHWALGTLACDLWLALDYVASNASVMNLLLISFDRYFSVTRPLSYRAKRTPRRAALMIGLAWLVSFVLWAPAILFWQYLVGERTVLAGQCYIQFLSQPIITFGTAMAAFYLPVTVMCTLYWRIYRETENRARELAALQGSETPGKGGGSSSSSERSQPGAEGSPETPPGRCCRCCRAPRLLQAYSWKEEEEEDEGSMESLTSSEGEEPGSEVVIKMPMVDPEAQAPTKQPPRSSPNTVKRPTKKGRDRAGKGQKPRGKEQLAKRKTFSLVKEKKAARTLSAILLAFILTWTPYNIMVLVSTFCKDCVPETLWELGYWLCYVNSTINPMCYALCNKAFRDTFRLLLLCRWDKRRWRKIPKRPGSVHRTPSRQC
Assay: biochemical
Type: cell-based, CHO-K1
test-readout: Ki (µM)
Field format: number, assumed µM, no unit text.

IN: For the compound CN1CCC(c2ccccc2F)=C(C(=O)OCCc2ccc3c(c2)CCO3)C1 , report Ki.
OUT: 5.27

IN: For the compound COc1ccc(CCOC(=O)C2=C(c3ccccc3)CN(C)CC2)cc1OC , report Ki.
OUT: 6.16

IN: For the compound CCN1CCC(c2ccccc2)=C(C(=O)OCCc2ccc3c(c2)CCO3)C1 , report Ki.
OUT: 1.39

IN: For the compound CSc1ccc(CCOC(=O)C2=C(c3ccccc3)CCN(C)C2)cc1 , report Ki.
OUT: 0.34

IN: For the compound COc1ccc(CCOC(=O)C2=C(c3cccc(F)c3)CCN(C)C2)cc1OC , report Ki.
OUT: 27

IN: For the compound CCN1CCC(c2ccccc2)=C(C(=O)OCCc2ccc3c(c2)OCO3)C1 , report Ki.
OUT: 0.2

IN: For the compound COc1ccc(CCOC(=O)C2=C(c3ccccc3)CCN(C)C2)cc1C , report Ki.
OUT: 2.7

IN: For the compound CCN1CCC(c2ccccc2)=C(C(=O)OCCc2ccc(OC)c(F)c2)C1 , report Ki.
OUT: 11.7

IN: For the compound CCN1CCC(c2ccccc2)=C(C(=O)OCCc2cccc(OC)c2)C1 , report Ki.
OUT: 0.47

IN: For the compound CN1CCC(c2ccccc2)=C(C(=O)OCCc2cccc3ccccc23)C1 , report Ki.
OUT: 24.4

IN: For the compound CCN1CCC(c2ccc(F)cc2)=C(C(=O)OCCc2ccc3c(c2)CCO3)C1 , report Ki.
OUT: 7.9

IN: For the compound CCN1CCC(c2ccccc2)=C(C(=O)OCc2ccc(OC)cc2)C1 , report Ki.
OUT: 3.06

IN: For the compound CN1CCC(c2ccccc2)=C(C(=O)OCCCc2ccc3c(c2)CCO3)C1 , report Ki.
OUT: 0.92

IN: For the compound COc1ccc(OCCOC(=O)C2=C(c3ccccc3)CCN(C)C2)cc1 , report Ki.
OUT: 6.19

Ref: ChEMBL document CHEMBL2311283
